test settings: in methyl acetate, 318.15 K
reported endpoint: solubility (mole fraction)
Form rule: numeric answer, no unit written next to it.

Looking up CC(C)(C)C(O)/C(=C\c1ccc(Cl)cc1)n1cncn1 (stereo unspecified) , I see its solubility (mole fraction) listed as 0.0318

###

test settings: in propylene glycol, 288.15 K
reported endpoint: solubility (mole fraction)
Respond with the number and no other words.

So for CC(C)(C)C(O)/C(=C\c1ccc(Cl)cc1)n1cncn1 (stereo unspecified) , the logged solubility (mole fraction) turned out to be 0.00423

###

test settings: in isobutyl acetate, 293.15 K
reported endpoint: solubility (mole fraction)
// return just the number, without any unit appended

In plain terms, CC(C)(C)C(O)/C(=C\c1ccc(Cl)cc1)n1cncn1 (stereo unspecified) has a documented solubility (mole fraction) of 0.0136

###

test settings: in isobutyl acetate, 323.15 K
reported endpoint: solubility (mole fraction)
Format: numeric value only, no unit, no commentary.

Record CC(C)(C)C(O)/C(=C\c1ccc(Cl)cc1)n1cncn1 (stereo unspecified) , field solubility (mole fraction): 0.0423

###

test settings: in ethyl acetate, 288.15 K
reported endpoint: solubility (mole fraction)
Lab note: write the figure by itself, no unit.

According to the records, this compound CC(C)(C)C(O)/C(=C\c1ccc(Cl)cc1)n1cncn1 (stereo unspecified) displays solubility (mole fraction) of 0.016

###

test settings: in ethylene glycol, 283.15 K
reported endpoint: solubility (mole fraction)

The compound listed as CC(C)(C)C(O)/C(=C\c1ccc(Cl)cc1)n1cncn1 (stereo unspecified) shows solubility (mole fraction) equal to 0.000983

###

test settings: in isobutyl acetate, 283.15 K
reported endpoint: solubility (mole fraction)

Sure, the documented solubility (mole fraction) for CC(C)(C)C(O)/C(=C\c1ccc(Cl)cc1)n1cncn1 (stereo unspecified) is 0.0102

###

test settings: in isopropanol, 293.15 K
reported endpoint: solubility (mole fraction)
Quick one: just the number, no unit, thanks!

The reported solubility (mole fraction) of the molecule CC(C)(C)C(O)/C(=C\c1ccc(Cl)cc1)n1cncn1 (stereo unspecified) was 0.0157

###

test settings: in ethylene glycol, 278.15 K
reported endpoint: solubility (mole fraction)
Give the value as a plain number.

Lab note: CC(C)(C)C(O)/C(=C\c1ccc(Cl)cc1)n1cncn1 (stereo unspecified) gave solubility (mole fraction) of 0.000907

###

test settings: in ethyl acetate, 313.15 K
reported endpoint: solubility (mole fraction)
Reply with the value as a number alone.

The recorded solubility (mole fraction) for CC(C)(C)C(O)/C(=C\c1ccc(Cl)cc1)n1cncn1 (stereo unspecified) is 0.028

###

test settings: in isobutyl acetate, 318.15 K
reported endpoint: solubility (mole fraction)
Just the number, please.

Field solubility (mole fraction) (entry CC(C)(C)C(O)/C(=C\c1ccc(Cl)cc1)n1cncn1 (stereo unspecified) ) reads 0.0335
